This collection of values is drawn from ChEMBL document CHEMBL4387709.

PROTOCOL SUMMARY: Selectivity index, ratio of CC50 for human RD cells to EC50 for Enterovirus D68 US/KY/14-18953 infected in human RD cells
Assay type: toxicity, cell-based
CONDITION SUMMARY: read-out: Ratio CC50/EC50
Lab note: class by selectivity ratio, see bottom (below 8), middle (8 to below 20), top (20 or more)

>>> discrete_label("CCN(CC)CCNC(=O)c1cc(-c2ccsc2)nc2ccccc12")
"top"
>>> discrete_label("CCN(CC)CCNC(=O)c1cc(-c2ccc3c(c2)OCCO3)nc2ccccc12")
"bottom"

Enquiry: Field: class (selectivity ratio) — entry: CC(C)Oc1cc(C(=O)NCCCN(C)C)c2ccccc2n1
Return: middle

Enquiry: Field: class (selectivity ratio) — entry: CCN(CC)CCNC(=O)c1cc(-c2ccccc2)nc2ccccc12
Return: top
